Each record here notes measured pIC50.
- Experimental System: O-acyltransferase (Oryctolagus cuniculus, UniProt G1SFD9)
- Sequence (G1SFD9 1-524): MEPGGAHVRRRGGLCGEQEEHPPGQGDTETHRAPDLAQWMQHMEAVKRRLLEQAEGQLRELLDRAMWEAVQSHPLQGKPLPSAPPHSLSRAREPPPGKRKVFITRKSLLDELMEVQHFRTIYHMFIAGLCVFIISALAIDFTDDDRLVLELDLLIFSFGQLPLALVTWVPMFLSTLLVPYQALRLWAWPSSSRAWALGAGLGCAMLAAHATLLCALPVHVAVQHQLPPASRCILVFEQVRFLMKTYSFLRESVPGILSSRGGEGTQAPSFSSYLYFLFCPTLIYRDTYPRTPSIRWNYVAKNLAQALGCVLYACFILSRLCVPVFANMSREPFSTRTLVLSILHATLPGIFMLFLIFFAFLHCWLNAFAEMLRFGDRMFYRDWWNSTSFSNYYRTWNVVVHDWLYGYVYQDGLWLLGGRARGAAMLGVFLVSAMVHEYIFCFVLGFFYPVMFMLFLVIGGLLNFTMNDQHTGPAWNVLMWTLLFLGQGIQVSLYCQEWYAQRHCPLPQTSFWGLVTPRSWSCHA
- Procedure Summary: Inhibition against acyl coenzyme A:cholesterol acyltransferase derived from rabbit intestine microsomes
Keep it numeric: pIC50 is minus log10 of the concentration in mol/L.

Please review the entries below; each comes with its answer.
>>> measured_number("CCCCNC(=O)Nc1c(C)cccc1OCCCn1cnc(-c2ccccc2)c1C(C)C")
6.89
>>> measured_number("CCCCCNC(=O)Nc1c(CCC)cccc1OCCCn1cnc(-c2ccccc2)c1C")
6.77

Alright, here's another molecule for you.
Lookup: Provide the documented pIC50 with O-acyltransferase (Oryctolagus cuniculus, UniProt G1SFD9) as the system for `CCCCCNC(=O)Nc1c(O)cccc1OCCCn1cnc(-c2ccccc2)c1C`
Found: 6.34

Provenance of the data: ChEMBL document CHEMBL1127021
